target entity: T1, human proprotein convertase subtilisin/kexin type 9, his tagged antigen (Homo sapiens, UniProt Q8NBP7)
T1 construct: human PCSK9; also called hPCSK9; PCSK9; source: bought: Sinobiological, China, Cat# 29698-H08H
T1 sequence (Q8NBP7 31-692): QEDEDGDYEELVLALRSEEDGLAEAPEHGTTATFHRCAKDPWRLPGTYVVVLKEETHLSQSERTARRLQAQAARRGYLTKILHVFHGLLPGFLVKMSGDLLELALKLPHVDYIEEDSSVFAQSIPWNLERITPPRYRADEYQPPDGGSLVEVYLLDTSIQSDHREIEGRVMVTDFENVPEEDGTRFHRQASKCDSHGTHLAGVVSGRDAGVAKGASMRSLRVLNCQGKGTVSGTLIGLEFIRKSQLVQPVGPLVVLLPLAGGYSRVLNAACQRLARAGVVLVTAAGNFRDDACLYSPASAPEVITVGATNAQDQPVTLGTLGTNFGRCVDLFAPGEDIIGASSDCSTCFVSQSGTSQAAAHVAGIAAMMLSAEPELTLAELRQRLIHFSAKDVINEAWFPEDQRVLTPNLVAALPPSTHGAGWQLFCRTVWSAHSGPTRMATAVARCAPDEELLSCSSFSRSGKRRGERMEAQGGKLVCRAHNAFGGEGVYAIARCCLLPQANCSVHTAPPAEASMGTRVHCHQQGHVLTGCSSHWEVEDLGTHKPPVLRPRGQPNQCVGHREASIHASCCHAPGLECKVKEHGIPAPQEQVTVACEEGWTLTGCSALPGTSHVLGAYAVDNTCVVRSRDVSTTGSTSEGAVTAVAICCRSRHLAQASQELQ
procedure summary: SPR; hPCSK9-his on CM5 chip (~800 RU); 6 or 7-point two-fold dilutions of the VHH-based proteins injected; 25 °C; global fit with floating Rmax; Biacore T200
study conditions: both partners purified
parameter: kon

Some solved cases for reference:
[
  {
    "binder": "VHH-A6 (VHH, llama anti-hPCSK9 VHH from an immune phage library; source: E. coli, supernatant of TES lysate (screening); E. coli induced by IPTG, and Pichia pastoris X33, purified (Histrap FF column)) VHH: PGAAAGVGGGSVQAGGSLRLSCAASRYTDRTRCIAWFRQVPGKEREGVACLDRAGGQSAYADSAKGRFTVSQDNAGNTVYLQMDNLIPEDSAMYYCAAAGVGQWYTCLQKFIRDKRSFANWGQGTQVTVSS",
    "kon": "15400 M⁻¹ s⁻¹"
  },
  {
    "binder": "VHH-B11 (VHH, llama anti-hPCSK9 VHH from an immune phage library; 17 kDa on SDS-PAGE; also called monovalent VHH-B11; monovalency VHH-B11; source: E. coli, supernatant of TES lysate (screening); E. coli induced by IPTG, and Pichia pastoris X33, purified (Histrap FF column)) VHH: EVQLVESGGGSVQAGGSLRLSCTVSGYTYSSNCMGWFRQAPGKEHEGVASIYIGGGSTYYADSVKGRFTISQDNAKNTVYLQMNSLKPEDTAMYYCAVGCQGLVDFGYWDQGTQVTVSS",
    "kon": "271000 M⁻¹ s⁻¹"
  },
  {
    "binder": "VHH-G8 (VHH, llama anti-hPCSK9 VHH from an immune phage library; source: E. coli, supernatant of TES lysate (screening); E. coli induced by IPTG, and Pichia pastoris X33, purified (Histrap FF column)) VHH: DVQLVESGGGSVQAGGSLTLSCVVSGYRGQKICTGWFRQFPGMEREAVARILPRGPNTQYTDSVKGRFTISQDAAKNTVNLQMSSLKPKDTAMYYCAQGWGGASDWALQPRRYNYWGQGTQVTVSS",
    "kon": "162000 M⁻¹ s⁻¹"
  }
]

// switching to the query binder
Any idea what kon was measured for VHH-H12 (VHH, llama anti-hPCSK9 VHH from an immune phage library; source: E. coli, supernatant of TES lysate (screening); E. coli induced by IPTG, and Pichia pastoris X33, purified (Histrap FF column)) VHH: GGGLVQAGGSLRLSCAASRSTFSGYAMAWFRQAPGKEREFVACIEREIPGHPAWSGLTYYADSKKGRFTISRDNAKNTVYLQMNSLKPEDTAVYYCAAGLKYPAQKHYDYDYWGQGTQVTVPS ? 7440 M⁻¹ s⁻¹
